The following variants are listed with their measured fraction ligated values.
B1: F1*; the commonest letter at each place (parent)
chain: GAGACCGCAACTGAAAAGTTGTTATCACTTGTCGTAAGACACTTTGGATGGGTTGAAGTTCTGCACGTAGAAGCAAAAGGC

# Variants of: B1
# protocol.details: fraction ligated after 30 min (ligated reads / total reads); higher = more ligase activity
# test.parameters: with F1*sub RNA substrate (template-directed ligation), 42 °C
When you answer, write just the number.

These solved cases illustrate the format of a correct answer.
>  <variant.annotation>
C28T T43A

>  <fraction ligated>
0.803

$$$$
>  <variant.annotation>
T25C T32C

>  <fraction ligated>
0.762

$$$$
>  <variant.annotation>
T45A T49G

>  <fraction ligated>
0.0993

$$$$
>  <variant.annotation>
C28G C42A

>  <fraction ligated>
0.824

$$$$
>  <variant.annotation>
T23G A37G

>  <fraction ligated>
0.867

$$$$

Asked: I'd like to know its fraction ligated. The variant in question is G34A A57C
Given back: 0.791

Asked: I'd like to know its fraction ligated. The variant in question is T25G T30G
Given back: 0.776

Asked: I'd like to know its fraction ligated. The variant in question is A37G G46A
Given back: 0.818

Asked: I'd like to know its fraction ligated. The variant in question is T32G A41C
Given back: 0.794

Asked: I'd like to know its fraction ligated. The variant in question is T29A G47C
Given back: 0.249

Asked: I'd like to know its fraction ligated. The variant in question is T45G A56C
Given back: 0.187

Hey, just so you know, these numbers are from the supplement of paper PMC6755084.
